// data source = paper PMC11195807

- System: c-Myc
- MEASUREMENT NOTES: CD melting experiments, c-Myc GQ
- Assay type: binding
- TEST CONDITIONS: 1 molar equiv compound, T1/2 of DNA alone 70.0 °C

MOLECULE: COc1ccc2cc3[n+](cc2c1OCCCCn1cc(CCOc2ccc4ccc(=O)oc4c2)nn1)CCc1cc2c(cc1-3)OCO2 [Compound 38]
ΔT1/2 c-Myc [°C]: 15.0

MOLECULE: COc1ccc2cc3[n+](cc2c1OCCCCCn1cc(-c2ccc(S(N)(=O)=O)cc2)nn1)CCc1cc2c(cc1-3)OCO2 [Compound 32]
ΔT1/2 c-Myc [°C]: 13.0

MOLECULE: COc1ccc2cc3[n+](cc2c1OCc1cn(CCCCOc2ccc4ccc(=O)oc4c2)nn1)CCc1cc2c(cc1-3)OCO2 [Compound 43]
ΔT1/2 c-Myc [°C]: 14.0

MOLECULE: COc1ccc2cc3[n+](cc2c1OCCCCCn1cc(COc2ccc(S(N)(=O)=O)cc2)nn1)CCc1cc2c(cc1-3)OCO2 [Compound 33]
ΔT1/2 c-Myc [°C]: 12.5

MOLECULE: COc1ccc2cc3[n+](cc2c1OCCCn1cc(CCCOc2ccc4ccc(=O)oc4c2)nn1)CCc1cc2c(cc1-3)OCO2 [Compound 36]
ΔT1/2 c-Myc [°C]: 15.0

MOLECULE: COc1ccc2cc3[n+](cc2c1OCCCn1cc(COc2ccc(S(N)(=O)=O)cc2)nn1)CCc1cc2c(cc1-3)OCO2 [Compound 29]
ΔT1/2 c-Myc [°C]: 16.5

MOLECULE: COc1ccc2cc3[n+](cc2c1OCCCS(N)(=O)=O)CCc1cc2c(cc1-3)OCO2 [Compound 47]
ΔT1/2 c-Myc [°C]: 12.5

MOLECULE: COc1ccc2cc3[n+](cc2c1OCCCCn1cc(COc2ccc(S(N)(=O)=O)cc2)nn1)CCc1cc2c(cc1-3)OCO2 [Compound 31]
ΔT1/2 c-Myc [°C]: 13.0

MOLECULE: COc1ccc2cc3[n+](cc2c1OCCCn1cc(COc2ccc4ccc(=O)oc4c2)nn1)CCc1cc2c(cc1-3)OCO2 [Compound 34]
ΔT1/2 c-Myc [°C]: 18.0

MOLECULE: COc1ccc2cc3[n+](cc2c1OC)CCc1cc2c(cc1-3)OCO2 [Berberine, berberine, reference compound]
ΔT1/2 c-Myc [°C]: 12.0

MOLECULE: COc1ccc2cc3[n+](cc2c1OCCCCn1cc(COc2ccc4ccc(=O)oc4c2)nn1)CCc1cc2c(cc1-3)OCO2 [Compound 37]
ΔT1/2 c-Myc [°C]: 13.0

MOLECULE: COc1ccc2cc3[n+](cc2c1OCCn1cc(COc2ccc(S(N)(=O)=O)cc2)nn1)CCc1cc2c(cc1-3)OCO2 [Compound 27]
ΔT1/2 c-Myc [°C]: 18.5

MOLECULE: COc1ccc2cc3[n+](cc2c1OCc1cn(CCCOc2ccc4ccc(=O)oc4c2)nn1)CCc1cc2c(cc1-3)OCO2 [Compound 42]
ΔT1/2 c-Myc [°C]: 16.0

MOLECULE: COc1ccc2cc3[n+](cc2c1OCc1cn(-c2ccc(S(N)(=O)=O)cc2)nn1)CCc1cc2c(cc1-3)OCO2 [Compound 41]
ΔT1/2 c-Myc [°C]: 14.5

MOLECULE: COc1ccc2cc3[n+](cc2c1OCCCn1cc(CCOc2ccc4ccc(=O)oc4c2)nn1)CCc1cc2c(cc1-3)OCO2 [Compound 35]
ΔT1/2 c-Myc [°C]: 18.5
